Test system: mice (C57B1/6xDBA/2)F1 B6D2F1
Settings: single injection into tail vein, probit analysis
Listing: MTD of selected molecules

molecule: CC1C=CC=CC=CC=CC=CC=CC=CC(OC2OC(C)C(O)C(N)C2O)CC2OC(O)(CC(O)CCCC(O)CC(O)CC(O)CC(=O)OC(C)C(C)C1O)CC(O)C2C.NC(CCC(=O)O)C(=O)O (stereo not shown)
system: mice (C57B1/6xDBA/2)F1 B6D2F1
MTD, mg/kg: 42.8

molecule: C[C@@H]1[C@H](O)[C@@H](C)/C=C/C=C/C=C/C=C/C=C/C=C/C=C/[C@H](O[C@@H]2O[C@H](C)[C@@H](O)[C@H](N)[C@@H]2O)C[C@@H]2O[C@](O)(C[C@@H](O)[C@H](O)CC[C@@H](O)C[C@@H](O)C[C@@H](O)CC(=O)O[C@H]1C)C[C@H](O)[C@H]2C(=O)O [Compound S44HP, reference compound]
system: mice (C57B1/6xDBA/2)F1 B6D2F1
MTD, mg/kg: 0.64

molecule: CC1C=CC=CC=CC=CC=CC=CC=CC(OC2OC(C)C(O)C(N)C2O)CC2OC(O)(CC(O)CCCC(O)CC(O)CC(O)CC(=O)OC(C)C(C)C1O)CC(O)C2C(=O)NCCN(C)C.NC(CCC(=O)O)C(=O)O (stereo not shown)
system: mice (C57B1/6xDBA/2)F1 B6D2F1
MTD, mg/kg: 10.8

molecule: CC1C=CC=CC=CC=CC=CC=CC=CC(OC2OC(C)C(O)C(N)C2O)CC2OC(O)(CC(O)C(O)CCC(O)CC(O)CC(O)CC(=O)OC(C)C(C)C1O)CC(O)C2C(=O)NCCCN(C)C (stereo not shown) [Compound 11, S44HP DMAP Amide]
system: mice (C57B1/6xDBA/2)F1 B6D2F1
MTD, mg/kg: 11.9

* * *

Listing: Haemolysis of human blood erythrocytes, MEAN ± SE of selected molecules
Tested on: human blood erythrocytes
Assay: In vitro toxicity study, haemolysis (Table 10)
Format: cell-based
Settings: 5 μg/mL
readout: Haemolysis of human blood erythrocytes, MEAN ± SE (%)

molecule: COC(=O)C(CO)NC(=O)C1C(O)CC2(O)CC(O)C(O)CCC(O)CC(O)CC(O)CC(=O)OC(C)C(C)C(O)C(C)C=CC=CC=CC=CC=CC=CC=CC(OC3OC(C)C(O)C(N)C3O)CC1O2 (mixture of isomers) [Compound 14]
system: human blood erythrocytes
measured.number: 4.9
//
molecule: CC1C=CC=CC=CC=CC=CC=CC=CC(OC2OC(C)C(O)C(N)C2O)CC2OC(O)(CC(O)C(O)CCC(O)CC(O)CC(O)CC(=O)OC(C)C(C)C1O)CC(O)C2C(=O)NC1C(O)OC(CO)C(O)C1O (stereo not shown) [Compound 16]
system: human blood erythrocytes
measured.number: 3.1
//
molecule: C[C@@H]1[C@H](O)[C@@H](C)/C=C/C=C/C=C/C=C/C=C/C=C/C=C/[C@H](O[C@@H]2O[C@H](C)[C@@H](O)[C@H](N)[C@@H]2O)C[C@@H]2O[C@](O)(C[C@@H](O)C[C@@H](O)[C@H](O)CC[C@@H](O)C[C@@H](O)CC(=O)O[C@H]1C)C[C@H](O)[C@H]2C(=O)O [Amphotericin B, reference compound]
system: human blood erythrocytes
measured.number: 30.3
//
molecule: COC(=O)C(CO)NC(=O)C1C(O)CC2(O)CC(O)C(O)CCC(O)CC(O)CC(O)CC(=O)OC(C)C(C)C(O)C(C)C=CC=CC=CC=CC=CC=CC=CC(OC3OC(C)C(O)C(N)C3O)CC1O2 (stereo not shown) [Compound 13]
system: human blood erythrocytes
measured.number: 14.5
